The origin of these recorded values is patent US20250011410A1.

Below, each entry is listed alongside its reported koff.
Target: T1, canine NGF tagged at the C-terminus with the Flag tag (canine, UniProt A0A8I3PYI3 122-241)
T1 construct: mature; Expressed with baculovirus technology; also called feline NGF (processed form identical)
T1 sequence (A0A8I3PYI3 entry or part of it): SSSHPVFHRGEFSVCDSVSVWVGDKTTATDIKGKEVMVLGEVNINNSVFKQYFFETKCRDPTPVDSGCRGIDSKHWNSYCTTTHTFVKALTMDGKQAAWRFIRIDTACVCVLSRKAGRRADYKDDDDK
Assay: SPR off-rate screen, Fab-SASA on BSA chip
Property name: koff (s⁻¹)

>  <Binder>
felinized clone 101 Fab-SASA variant K64D (VH) (Fab, V domains shown, not shown: small tags and cut ends) VH: DVQLVESGGDLVKPGGSLRLTCVASGLSLTSSSMSWVRQAPGKGLQWVSTIYSNGGTYYTDSVDGRFTISKDNAENTLYLQMNNLKTEDTATYYCASIYYYDADYLHWYFDFWGQGALVTVSS VL: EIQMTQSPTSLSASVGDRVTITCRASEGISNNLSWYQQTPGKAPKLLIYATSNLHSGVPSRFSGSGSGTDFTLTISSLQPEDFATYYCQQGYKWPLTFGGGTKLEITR

>  <Measured value>
0.000554

$$$$
>  <Binder>
felinized clone 101 Fab-SASA variant N31Q (VL) (Fab, V domains shown, not shown: small tags and cut ends) VH: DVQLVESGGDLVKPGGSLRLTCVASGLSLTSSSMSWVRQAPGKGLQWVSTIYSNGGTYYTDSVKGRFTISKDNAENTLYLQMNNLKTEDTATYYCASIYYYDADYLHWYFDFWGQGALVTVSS VL: EIQMTQSPTSLSASVGDRVTITCRASEGISQNLSWYQQTPGKAPKLLIYATSNLHSGVPSRFSGSGSGTDFTLTISSLQPEDFATYYCQQGYKWPLTFGGGTKLEITR

>  <Measured value>
0.00048

$$$$
>  <Binder>
felinized clone 101 Fab-SASA variant D104K (VH) (Fab, V domains shown, not shown: small tags and cut ends) VH: DVQLVESGGDLVKPGGSLRLTCVASGLSLTSSSMSWVRQAPGKGLQWVSTIYSNGGTYYTDSVKGRFTISKDNAENTLYLQMNNLKTEDTATYYCASIYYYDAKYLHWYFDFWGQGALVTVSS VL: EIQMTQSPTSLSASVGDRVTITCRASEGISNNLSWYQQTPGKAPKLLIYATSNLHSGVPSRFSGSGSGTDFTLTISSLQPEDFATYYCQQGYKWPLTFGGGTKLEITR

>  <Measured value>
0.000332

$$$$
